Procedure Details: soluble on expression in E. coli; label from the status in PepcDB or PDB records
Quantity Name: soluble on expression in E. coli

As a guide, the following entries are already answered.
INSERT INTO measurements (residue_codes, data_value) VALUES
  ('MDVRQSIHSAHAKTLDTQGLRNEFLVEKVFVADEYTMVYSHIDRIIVGGIMPITKTVSVGGEVGKQLGVSYFLERRELGVINIGGAGTITVDGQCYEIGHRDALYVGKGAKEVVFASIDTGTPAKFYYNCAPAHTTYPTKKVTPDEVSPVTLGDNLTSNRRTINKYFVPDVLETCQLSMGLTELAPGNLWNTMPCHTHERRMEVYFYFNMDDDACVFHMMGQPQETRHIVMHNEQAVISPSWSIHSGVGTKAYTFIWGMVGENQVFDDMDHVAVKDLR', 'not soluble'),
  ('MGSDKIHHHHHHMRIIETIEEMKKFSEEMREKKKTIGFVPTMGYLHEGHLSLVRRARAENDVVVVSIFVNPTQFGPNEDYERYPRDFERDRKLLEKENVDCIFHPSVEEMYPPDFSTYVEETKLSKHLCGRSRPGHFRGVCTVVTKLFNIVKPHRAYFGQKDAQQFRVLRRMVRDLNMDVEMIECPIVREPDGLAMSSRNVYLSPEERQQALSLYQSLKIAENLYLNGERDAEKIKEEMIKHLSRFDKVKIDYVEIVDEETLEPVEKIDRKVIVAVAAWVGNARLIDNTILG', 'not soluble'),
  ('MSNIIKQLEQEQLKQNVPSFRPGDTLEVKVWVVEGSKRRLQAFEGVVIAIRNRGLHSAFTLRKVSNGVGVERVFQTHSPAVDSIAVKRKGAVRKAKLYYLRERSGKSARIKERLGALEHHHHHH', 'not soluble'),
  ('MQRIIKNNEVIDETWHLLPKDTTLDSLSNCDDLIVPLALWREHAHALKARDGGLGVWLDSDEEAEEIGEDVDQFQVIALNFPAFTDGRSFSNARLLRDRYGFKGELRAIGDVLRDQLFYMRRCGFDAFAVRADKDPYDALEGLKDFSVTYQAATDEPLPLFRRR', 'not soluble'),
  ('MSQSGEQRRYTLGEFFSLAGDERMELYEGTIVLMYPVPYEHEGVVANLIAEFRMALKGSPCLVFGSNLQVVLLFEDEQKGTKNVTVLPDLSIICDRTKLRQGRCYGAPDLVVEVLSPSTARNDRLLKRLYYEKAGVREYWLVDYQHKVMEKYVWQSGAFQLEDVYDAANGAAASTVFPEVRFSVKEIFAFLTS', 'not soluble'),
  ('MKTLMVFDPAMCCSTGVCGTDVDQALVDFSTDVQWLKQCGVQIERFNLAQQPMSFVQNEKVKAFIEASGAEGLPLLLLDGETVMAGRYPKRAELARWFGIPLDKVGLAPG', 'soluble'),
  ('MKRKIIVACGGAVATSTMAAEEIKELCQSHNIPVELIQCRVNEIETYMDGVHLICTTARVDRSFGDIPLVHGMPFVSGVGIEALQNKILTILQG', 'soluble');

Could you now consider this next sequence?
Query: Item under review: MTAHPPRPELQIDIVSDVVCPWCIVGFRQLDQALAATGVLARLRWHPFELNPQMGPEGQNLREHIMEKYGSTPEQSAEARARLTAIGAELGFTFNFTDDSRIVNTFAAHQLLDWAEGQGRQHPLKQALFAAYFTDGRDVSDLSVLLDAVEAAGLDREAAQTALTSGAHQAPVREKQKFWAQHGISGVPSMVFGGKYLLTGAQGADTYAQVIQRCLAEAA . Reported soluble on expression in E. coli?
Result: not soluble

###

Procedure Details: soluble on expression in E. coli; label from the status in PepcDB or PDB records
Quantity Name: soluble on expression in E. coli

INSERT INTO measurements (residue_codes, data_value) VALUES
  ('MKYDWILFDADETLFHFDAFKGLQLMFSRKGVDFTEQDFAHYQTVNKPLWVDYQDGKVTADELKHKRFTEWAEKLNTTTADLNSAFLEAMADICS', 'not soluble'),
  ('MPLNHYQQEVGPSLADTSPGKMPDVALLEGRYCSVEHLTVAEHYEDILDFYFTNQILSDWTYMYADPFESEEAVRQCLEDYEQSQNPYFFAIRDKASGKVLGTFSLMAITPKNRSVEMGRVILAPALQKTRAATEAQYLLMKYVFEDLNYRRYEWKCDKSQPPFCQCSHSFRVHL', 'not soluble'),
  ('MSLALFYGRKITVAGISKRGSETALEISEKLSEKGLAVKCYSRSNLKGCNTYIGSTQNFVLSEVRKSDVLVLVMSLGGAVRIIEKASILKEEGIAVIVVDDYGRYAIPIVNGHSGSANVFARLISELIGSEYIITDAVELNGLMSVEEMSRRLYCTIANPECVLKINTALANGDPVFARNESSKRKHAFEMIKYPWKTYSRSDDAKIIITDRPGEGGEICYLVPDDISVGIGFTGKADPYNIKKRIEEVLLSLGLGYDDVNCVSSLRYNKFLSELIKDNGTEFRTFSADDLKSVDVSLLSHISEEAEEKLGIPGSAEPSALLSLGPGSRIIYPFTKFDHSMTISVASRREGHHHHHH', 'soluble'),
  ('GPGSMFVSDNDDYLPEPQAPGDHHMHEERLRRLEENFALLLNQRSVGNASGPKESTPKARVTAVAADVQAADERSLKLTYELRELVPHLSPGFDCCSADALLLLSAIRNGSHGRGCESWEDRLAVVKAEKRSLHHQLEKKAQECEELKNAVAEMKQRLKAERQEALSSVNVLSQRREQVRKQLLLEESRSQKLQVRNGQLESELERLKDMLHSCMRR', 'not soluble'),
  ('MGSDKIHHHHHHMPRIHFNPDGRRSPTEFEPVTVHHRKPPLDGIISSHRHNWSQLTCPLKGSMRVTTERQVWTVTSFRAVWIPPGVDHELTMVGATEFHAVFIDPQHSPLPANQCCVVDVSPLMRELMQWLGADYGPATDHSRRLTDVLLEEVRRATRRTSALVLPGDRRLKSLCEALMEDPGSTLTLGEWAHRTGASERTLARLFQIELGTTFGAWRQQLRLSCAVDLLRSGLSLSRIAADLGYADSAAFSTMFKRAFGVAPSRYHASSAQAMN', 'not soluble'),
  ('MGSDKIHHHHHHMGVKTAAIKPQINRFFERIINMIIDRERVKNTFAEYTSGYNATDPKIKLKIDHTYRVAELCELIARNLKLDEYETDVAWLTGMLHDVGRFEQIKCYNTFNDALSVDHANFGADLLFKEGLIDTYVDGFHDDKYGTIVENAIRNHSAFRIDERLDEYTVMFCNILRDADKVDIFRVNVDTPAEDIYNVTTEELKNSQVSPEVMAAFDERHAVLRSCKKTVVDHVAGHIALTFELVYPISLQIANERGYLDKMMAFESDNEVTGKQFEEIRAKLNEYVASVKPL', 'not soluble'),
  ('MKLPARVFFTLGSRLPCGLAPRRFFSYGTKILYQNTEALQSKFFSPLQKAMLPPNSFQGKVAFITGGGTGLGKGMTTLLSSLGAQCVIASRKMDVLKATAEQISSQTGNKVHAIQCDVRDPDMVQNTVSELIKVAGHPNIVINNAAGNFISPTERLSPNAWKTITDIVLNGTAFVTLEIGKQLIKAQKGAAFLSITTIYAETGSGFVVPSASAKAGVEAMSKSLAAEWGKYGMRFNVIQPGPIKTKGAFSRLDPTGTFEKEMIGRIPCGRLGTVEELANLAAFLCSDYASWINGAVIKFDGGEEVLISGEFNDLRKVTKEQWDTIEELIRKTKGS', 'soluble'),
  ('SDEDGLPLMGSGIDLTKVPAIQQKRTVAFLNQFVVHTVQFLNRFSAVCEEKLADLSLRIQQIETTLNILDAKLSSIPGLEDVTVEVSPLNVTAVTNGSHSETTSEQTQQNSTQDSGAQESEAPSENVLTVAKDPRYARYRKMVQVGVPVMAIRDKMISEGLDPELLEKPDAPVPNGESKRAVEESSDSDSSFSD', 'soluble'),
  ('MGSDKIHHHHHHMFDLHVHSVFSDGELIPSEIARRMYAAGNKGFAITDHADFTNIQDILAKLTRIKEHMESYEAKFLVGVEITHVPPSLIGKAVELAWKEGAEIVVVHGETVAEPVKEGTNLAALSEEITILAHPGIMSEEEAELARENGIYVEISARRGHCLGNGRVARLAEKYGFELVINTDMHSPSDIINDSTAERILKGAGVKEWKSVLENNEKLFRKLRK', 'not soluble'),
  ('MSKLAIIAGDGIGPEVTAEAVKVLDAVVPGVQKTSYDLGARRFHATGEVLPDSVVAELRNHDAILLGAIGDPSVPSGVLERGLLLRLRFELDHHINLRPARLYPGVASPLSGNPGIDFVVVREGTEGPYTGNGGAIRVGTPNEVATEVSVNTAFGVRRVVADAFERARRRRKHLTLVHKTNVLTFAGGLWLRTVDEVGECYPDVEVAYQHVDAATIHMITDPGRFDVIVTDNLFGDIITDLAAAVCGGIGLAASGNIDATRANPSMFEPVHGSAPDIAGQGIADPTAAIMSVALLLSHLGEHDAAARVDRAVEAHLATRGSERLATSDVGERIAAAL', 'soluble');

Could you now consider this next sequence?
Query: Item under review: MKVLTVVIPCYNSAEYMDRAIESLLIGDEELEILIVNDGSMDNTSIIADEYEKKYPNTIRVIHKENGGHGDAINTGLKHSKGVYFKVLDSDDWFDKASLKKVLEVLKNMIKDSKSLDMLISNYVYENFSINKSRSINYKGAMPKEKIFTWDSLGHLKSSQNILMHSVIYRTELLRECNLDLPKHTFYVDNIFVYKPLPYVKTMYYLDVDLYRYFIGREDQSVNEKVMIKRIDQQIKVTKILIDCYNPMLLNCKKLRKYMVKYLVMMMTVSTVLLIKDNTEQSLNKKRELWSYLHSKNRKLYFEVNKSFLGLLIQIKGFVGRKIILLGYSLSRKVFGFNLEHHHHHH . Reported soluble on expression in E. coli?
Result: not soluble
